# Test system: CHIKV
# Type: cell-based, chikungunya virus
Reported Score_si2 values are given for each entry in this list.
Respond using a number only.

INSERT INTO measurements (substance, targetundertest, resulttype, measuredvalue) VALUES
  ('s3626 (GAATTTGCGATGTACTTAA; chemistry not given here)', 'CHIKV', 'Score_si2', 1.98),
  ('s923 (AATTCAAGCTATGAAGATA; chemistry not given here)', 'CHIKV', 'Score_si2', 1.99),
  ('s31791 (GACCTTAAGATACCAGTAT; chemistry not given here)', 'CHIKV', 'Score_si2', 1.71);

**Q:** Return Score_si2 measured with CHIKV given this substance: s35401 (GGAACAAACTAGCCCTCAA; chemistry not given here)
**A:** 0.91

**Q:** State its Score_si2 on CHIKV: s195094 (sense CCTCTTCCACCGCTACTTC; chemistry not given here) [reference compound]
**A:** -0.76

**Q:** Under CHIKV: Score_si2 value of Hs_NUDT1_4 (CCGGGTTTCATCTGGAATTAA; chemistry not given here) ?
**A:** 1.96

**Q:** Give CHIKV Score_si2 for Hs_NAG_1 (CAGAGGAAGATTGAAAGTGAA; chemistry not given here)
**A:** 2.12

**Q:** Query Score_si2 on CHIKV for s28993 (CCATAGATCTGAATTGGGA; chemistry not given here)
**A:** 0.6

**Q:** Give CHIKV Score_si2 for Hs_YEATS4_2 (TTGGTAGTAAGCTAAACTGAA; chemistry not given here)
**A:** 1.07

----------
# Test system: CHIKV
# Assay type: cell-based, chikungunya virus
resultType: Score_si2
No unit in the answer, only the number.

INSERT INTO assay_data (substance, measuredvalue) VALUES
  ('s16996 (CAACATTGGTGGGAATGCA; chemistry not given here)', 1.51);

**Q:** I am curious: what Score_si2 value has been reported for Hs_PP3856_1 (CTGGACAGTGGTGACCTGCTA; chemistry not given here) ?
**A:** 1.53

**Q:** Recorded Score_si2 of Hs_NRD1_2 (AAGGCTTTCGATTGCCCGGAA; chemistry not given here) , please.
**A:** 1.41

**Q:** Bench note: what Score_si2 did Hs_ZA20D1_1 (AAGGAGGTTCTCAGTCAATAA; chemistry not given here) show?
**A:** 1.25

**Q:** Request the reported Score_si2 associated with Hs_SDFR1_10 (sense ACAGGTATATACAGCATATAA; chemistry not given here) [reference compound]
**A:** -2.32

**Q:** Would you mind telling me what Score_si2 value was observed for s25487 (sense AGTATTTGTTGGTTCATAA; chemistry not given here) ?
**A:** 1.54

**Q:** Endpoint output: Score_si2 of Hs_ASH2L_1 (CCGAGTAACTAACTTATTTAA; chemistry not given here) . Value?
**A:** 1.07

**Q:** # input substance: Hs_MAP3K14_1 (CAGGACTCACGTAGCATTAAA; chemistry not given here) ; wanted: its Score_si2
**A:** 1.59

**Q:** Can you share its Score_si2? I mean this substance: Hs_DLD_4 (TCGCTTGAATTTAGACAAGAT; chemistry not given here)
**A:** 1.23

**Q:** So what's the measured Score_si2 for this one? s8542 (AGGTTTTAACGATTTGTTT; chemistry not given here)
**A:** 0.14

**Q:** Please report the recorded Score_si2 for s32097 (ACAGCGCAAGTTCCAGTAT; chemistry not given here) .
**A:** 1.75

**Q:** Fill in the blank: the reported Score_si2 of Hs_GNB2L1_6 (sense AAGGATGGCCAGGCCATGTTA; chemistry not given here) is ____.
**A:** 1.62

**Q:** What measured Score_si2 goes with Hs_FCGRT_2 (AAGGATGTAAATGTGATTCCA; chemistry not given here) ?
**A:** 1.36

**Q:** Need Score_si2, item s35331 (GCAGGTAATCTCTATACTA; chemistry not given here)
**A:** 1.81

**Q:** Form field: reported Score_si2 of Hs_LTBP3_1 (CCGGGACAGATCTCAGCAGAA; chemistry not given here)
**A:** 1.9

**Q:** Please look up its Score_si2: s51651 (sense TGAGCAGTGAGAACCCATA; chemistry not given here)
**A:** 1.55

**Q:** Any idea what Score_si2 was measured for s26120 (sense GGCCCTTCATCGATAGCTA; chemistry not given here) [reference compound] ?
**A:** -0.97

**Q:** Reported Score_si2, substance s5031 (sense CCGTGGACCTGATCATCAA; chemistry not given here) : ____
**A:** 2.04

**Q:** Which value of Score_si2 has been reported for s15798 (GAATTACGGAGATATAGAA; chemistry not given here) in the records?
**A:** 1.46

**Q:** If you can, please state the reported Score_si2 value of Hs_SAFB_2 (sense AAGGTGGTAATCCTGACGAAA; chemistry not given here) .
**A:** 0.95

**Q:** Can you share its Score_si2? I mean this substance: Hs_UBE2C_9 (AGCCCTTGTATATTAAATAAA; chemistry not given here) [reference compound]
**A:** -0.83

**Q:** Requested read-out: Score_si2. Entry: s49212 (sense GATCGTTCCTGGGTGTTCA; chemistry not given here)
**A:** 0.94
